ASSAY: In vivo distribution in PC-3 xenografted tumor mouse model
CONDITION_SUMMARY: male, Balb/c nude, tumor (PC-3 xenograft), total radioactivity, prostate cancer cells (tumor), 1 hour after intravenous injection, 370 KBq, read-out: tumor uptake, percentage of the injected dose per unit weight
EXPERIMENTAL_ENDPOINT: tissue uptake at 1 h

COMPOUND	READOUT_VALUE
CSCC[C@H](NC(=O)[C@H](CC(C)C)NC(=O)[C@H](Cc1c[nH]cn1)NC(=O)CNC(=O)[C@@H](NC(=O)[C@H](C)NC(=O)[C@H](Cc1c[nH]c2ccccc12)NC(=O)[C@H](CCC(N)=O)NC(=O)c1ccc(NC(=O)[C@H](CCCCNC(=O)CO[C@@H]2[C@@H](O)[C@@H](O)O[C@H](CO)[C@H]2O)NC(=O)CN2CCN(CC(=O)O)CCN(CC(=O)O)CCN(CC(=O)O)CC2)cc1)C(C)C)C(N)=O [177Lu-DOTA-gluBBN, metal not drawn]	12.4 %ID/g
